Biological target: APOL1
Details: ASO, A431, 1 µM
After the bases stand the sugars from the 5' end (letter, count) and the backbone: PS all phosphorothioate, else s phosphorothioate and o phosphodiester by linkage. Methylation of C is not given here. e = 2'-O-(2-methoxyethyl) (MOE); k = constrained ethyl (cEt); d = 2'-deoxy (DNA)
# target mRNA inhibition listing for each entry below

{"columns": ["query-sequence", "target mRNA inhibition"],
 "data": [
  ["GCAAGGTTGTCCAGAG (sugars k4 d9 k3, PS)", "61%"],
  ["TCAGATGGGTACTTCT (sugars kkddddekekeddddd, PS)", "86%"],
  ["TTTCATATTCACCCGA (sugars k4 d9 k3, PS)", "86%"]
]}
